- target-or-system: T1, human urokinase plasminogen activator receptor, recombinant extracellular domain protein (human, UniProt Q03405 23-303)
- T1 construct: Bought recombinant protein (Sino Biological); also called h uPAR; human uPAR
- T1 sequence (Q03405 23-303 limits assumed): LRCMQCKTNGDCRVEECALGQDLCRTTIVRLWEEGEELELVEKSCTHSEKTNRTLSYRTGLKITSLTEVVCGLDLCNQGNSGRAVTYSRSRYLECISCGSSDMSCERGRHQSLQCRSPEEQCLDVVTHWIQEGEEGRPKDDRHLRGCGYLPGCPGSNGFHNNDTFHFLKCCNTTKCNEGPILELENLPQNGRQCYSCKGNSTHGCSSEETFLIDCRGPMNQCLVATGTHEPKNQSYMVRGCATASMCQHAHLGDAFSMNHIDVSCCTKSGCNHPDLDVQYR
- experimental-protocol: SPR (Biacore T200) off-rate screening of bacterial extract, h uPAR immobilised on CM5; column koff
Assign koff to each entry below.

Query block: # query: koff of entry sdAb 17 (clone 5B7) with carboxy-terminal hexahistidine tag (VHH, C-terminal 6His for purified-protein SPR; koff screen used bacterial extracts; also called Nr 17) VHH: QVQLQESGGGLVQPGGSLRLSCAVSGSTLEYYGIGWFRQAPGKEREGVSCISSSDGSTYYADSVKGRFTISRDNAKNTVYLQMNSLKPEDTAVYYCATRGASCYYTGSYSLGYDYWGQGTQVTVSS
Result block: 0.0026 s⁻¹

Query block: // same read-out, input: sdAb 18 (clone 5H2) with carboxy-terminal hexahistidine tag (VHH, C-terminal 6His for purified-protein SPR; koff screen used bacterial extracts; also called Nr 18) VHH: QVQLQESGGGLAQPGGSLRLSCTASGFTSDYYGIGWFRQAPGKEREGVSCISSSDGSTYYADSVKGRFTISRDNAKNTVYLQMNSLKPEDTAVYYCATRGASCYYTGSYSLGYDYWGQGTQVTVSS
Result block: 0.0031 s⁻¹

Query block: Another: sdAb 15 (clone 5A4) with carboxy-terminal hexahistidine tag (VHH, Lead compound; C-terminal 6His for purified-protein SPR; koff screen used bacterial extracts of the pMECS-GG construct; also called sdAb15.6His; Nr 15) VHH: QVQLQESGGGWVQPGGSLRLSCAASGFTLDYYGIGWFRQAPGKEREGVSCISSSDGSTYYADSVKGRFTISRDNAKNTVYLQMNSLKPEDTAVYYCATRGASCYYTGSYSLGYDYWGQGTQVTVSS
Result block: 0.0042 s⁻¹

Query block: Now consider sdAb 16 (clone 5A5) with carboxy-terminal hexahistidine tag (VHH, C-terminal 6His for purified-protein SPR; koff screen used bacterial extracts; also called Nr 16) VHH: QVQLQESGGGLVQPGGSLRLSCAISGFTLDYYGIGWFRQAPGKEREGVSCISSSDGSTYYADSVKGRFTISRDNAKNTVYLQMNSLKPEDTAVYYCATRGASCYYSGSYSLGYDYWGQGTQVTVSS and answer again.
Result block: 0.0027 s⁻¹
